Here, each record is paired with measured Efficacy (%) data.
- SUBJECT_OF_TEST: CIB1 and αIIb interaction (CIB1-GST : F-αIIb peptide) (Homo sapiens)
- Construct: made in house; host or cells: BL-21 plus RIL cells (E. coli)
- Sequence (Q99828 1-191): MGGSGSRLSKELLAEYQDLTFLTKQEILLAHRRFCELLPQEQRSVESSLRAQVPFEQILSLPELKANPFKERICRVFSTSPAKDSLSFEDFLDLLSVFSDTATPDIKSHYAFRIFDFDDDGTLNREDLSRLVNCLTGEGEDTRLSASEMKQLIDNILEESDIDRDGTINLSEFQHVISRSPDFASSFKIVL
- TEST: FP assay, 1536-well qHTS format (primary and confirmatory screen)
- Assay type: binding
- STUDY_CONDITIONS: qHTS primary screen hits, Table S2; negative = inhibition
Please state the value followed by its unit.

Examples from the recorded data:
COMPOUND: O=C1c2ccccc2C(=O)c2c(NCCc3ccc(O)cc3)ccc(NCCc3ccc(O)cc3)c21 [NCGC00186017-01]
SUBJECT_OF_TEST: CIB1 and αIIb interaction (CIB1-GST : F-αIIb peptide) (Homo sapiens)
Efficacy (%): -32%

COMPOUND: CC(C)(O)CCc1ccc(OCc2cc(-c3cccc(OC(F)F)c3)c3ncccc3c2)cc1 [NCGC00249759-02]
SUBJECT_OF_TEST: CIB1 and αIIb interaction (CIB1-GST : F-αIIb peptide) (Homo sapiens)
Efficacy (%): -59%

COMPOUND: NC[C@H](O)c1ccc(O)c(O)c1 [NCGC00159406-07]
SUBJECT_OF_TEST: CIB1 and αIIb interaction (CIB1-GST : F-αIIb peptide) (Homo sapiens)
Efficacy (%): -18%

# context switch: different compound, same Efficacy (%)
Lab note: compound COc1cc(C(=O)NS(=O)(=O)c2ccccc2C)ccc1Cc1cn(C)c2ccc(NC(=O)OC3CCCC3)cc12 [NCGC00164547-06] tested on CIB1 and αIIb interaction (CIB1-GST : F-αIIb peptide) (Homo sapiens); recorded Efficacy (%) was -38%
